assaySystem: T1, mouse NKp46 (mouse, UniProt Q8C567 17-325)
T1 construct: whole, on cells
T1 sequence (looked up): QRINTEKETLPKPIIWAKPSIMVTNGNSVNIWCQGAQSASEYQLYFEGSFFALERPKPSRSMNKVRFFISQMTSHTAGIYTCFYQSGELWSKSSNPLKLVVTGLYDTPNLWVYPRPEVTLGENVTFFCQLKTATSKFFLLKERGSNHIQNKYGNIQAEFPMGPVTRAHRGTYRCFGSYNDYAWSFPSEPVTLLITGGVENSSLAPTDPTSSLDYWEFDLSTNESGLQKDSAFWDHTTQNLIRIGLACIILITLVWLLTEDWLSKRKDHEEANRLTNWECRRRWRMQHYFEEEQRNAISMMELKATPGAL
measurementDescription: flow cytometry, HEK293F cells transfected with mouse NKp46
assayReadout: pKd
Please keep in mind that pKd is minus log10 of the molar concentration; only the number is needed.

binder="NKp46-hz5D7v7-Fc* (Fc fusion, VHH-Fc fusion with an IgG1 Fc lacking a hinge (Fc*); also called NKp46-bz5D7v7-Fc*) EVQLVESGGGEVQPGGSLRLSCAASGRTFASAAMGWFRQAPGKEREFVAAISRSGDTYYADSVKGRFTISRDNAKNTVYLQMSSLRAEDTAVYYCAAVVPTYGNNIYVHSAAYNYWGQGTLVTVKPGGGGPSVFLFPPKPKDTLMISRTPEVTCVVVDVSHEDPEVKFNWYVDGVEVHNAKTKPREEQYNSTYRVVSVLTVLHQDWLNGKEYKCKVSNKALPAPIEKTISKAKGQPREPQVYTLPPSRDELTKNQVSLTCLVKGFYPSDIAVEWESNGQPENNYKTTPPVLDSDGSFFLYSKLTVDKSRWQQGNVFSCSVMHEALHNHYTQKSLSLSPG" resultvalue=9.21
binder="NKp46-hz5D7v4-Fc* (Fc fusion, VHH-Fc fusion with an IgG1 Fc lacking a hinge (Fc*)) EVQLVESGGGEVQPGGSLRLSCAASGRTFASAAMGWFRQAPGKEREFVAAISRSDDTYYADSVKGRFTISRDNAKNTVYLQMSSLRAEDTAVYYCAAVVPTYGNNIYVHSAAYNYWGQGTLVTVKPGGGGPSVFLFPPKPKDTLMISRTPEVTCVVVDVSHEDPEVKFNWYVDGVEVHNAKTKPREEQYNSTYRVVSVLTVLHQDWLNGKEYKCKVSNKALPAPIEKTISKAKGQPREPQVYTLPPSRDELTKNQVSLTCLVKGFYPSDIAVEWESNGQPENNYKTTPPVLDSDGSFFLYSKLTVDKSRWQQGNVFSCSVMHEALHNHYTQKSLSLSPG" resultvalue=9.05
binder="NKp46-hz5D7v8-Fc* (Fc fusion, VHH-Fc fusion with an IgG1 Fc lacking a hinge (Fc*); also called NKp46-bz5D7v8-Fc*) EVQLVESGGGEVQPGGSLRLSCAASGRTFASAAMGWFRQAPGKEREFVAAISRSVGDTYYADSVKGRFTISRDNAKNTVYLQMSSLRAEDTAVYYCAAVVPTYGNNIYVHSAAYNYWGQGTLVTVKPGGGGPSVFLFPPKPKDTLMISRTPEVTCVVVDVSHEDPEVKFNWYVDGVEVHNAKTKPREEQYNSTYRVVSVLTVLHQDWLNGKEYKCKVSNKALPAPIEKTISKAKGQPREPQVYTLPPSRDELTKNQVSLTCLVKGFYPSDIAVEWESNGQPENNYKTTPPVLDSDGSFFLYSKLTVDKSRWQQGNVFSCSVMHEALHNHYTQKSLSLSPG" resultvalue=9.16

Note: attention shifts to another entry.
Recorded pKd (binder NKp46-hz5D7v1-Fc* (Fc fusion, VHH-Fc fusion with an IgG1 Fc lacking a hinge (Fc*)) EVQLVESGGGEVQPGGSLRLSCAASGRTFASAAMGWFRQAPGKGREFVAAISRSDDTYYAESVKGRFTISRDNAKNTLYLQMSSLRAEDTAVYYCAAVVPTYGNNIYVHSAAYNYWGQGTLVTVKPGGGGPSVFLFPPKPKDTLMISRTPEVTCVVVDVSHEDPEVKFNWYVDGVEVHNAKTKPREEQYNSTYRVVSVLTVLHQDWLNGKEYKCKVSNKALPAPIEKTISKAKGQPREPQVYTLPPSRDELTKNQVSLTCLVKGFYPSDIAVEWESNGQPENNYKTTPPVLDSDGSFFLYSKLTVDKSRWQQGNVFSCSVMHEALHNHYTQKSLSLSPG ): 9.33
